# Tested on: MDA-MB-231
# Assay Protocol: normalised response (% of control), CellTiter-Glo; higher = more viable cells (100 = DMSO, 0 = benzethonium chloride kill control)
# Experimental Context: incubation time: 72 h
Property: normalised response (%)
Answers are plain numbers, in %.

| Compound | Units Label | normalised response |
| --- | --- | --- |
| Cn1cnc2c(F)c(Nc3ccc(Br)cc3F)c(C(=O)NOCCO)cc21 [MEK-162] (100 nM) | % | 92 |
| CCOc1cc2ncc(C#N)c(Nc3ccc(OCc4ccccn4)c(Cl)c3)c2cc1NC(=O)/C=C/CN(C)C [Neratinib] (100 nM) | % | 102 |
| O=C(c1ccc(OCCN2CCCCC2)cc1)c1c(-c2ccc(O)cc2)sc2cc(O)ccc12 [Raloxifene] (1000 nM) | % | 107 |
| CC(C)C[C@H](NC(=O)[C@H](Cc1ccccc1)NC(=O)c1cnccn1)B(O)O [Bortezomib] (0.1 nM) | % | 101 |

Hi! Can you tell me normalised response for each of these compounds?
1. CCCC(CCC)C(=O)O [Valproic acid] (100 nM)
2. Cn1cnc2c(F)c(Nc3ccc(Br)cc3F)c(C(=O)NOCCO)cc21 [MEK-162] (1 nM)

Result string:
[105, 99]

Query string: Any idea what normalised response was measured for CS(=O)(=O)OCCCCOS(C)(=O)=O [Busulfan] (10000 nM) ?
Result string: 102

Each recorded value in this set is attributed to the supplement of paper PMC4862054.
